- TEST_SUMMARY: PSAC antagonists in infected red cells, primary screen, cell-based, P. falciparum Indochina, OD700, 18 h (AID 1157)
- SETUP_CONDITIONS: P. falciparum Indochina infected erythrocytes, osmotic lysis OD700, 18 h; higher = more signal, called active from +8 up or from −8 down
Each entry below carries its reported z-score.
Output: the number by itself.

CC[C@H]1C2=C3C(CC[C@H]4C(OC)OC[C@](C)([C@@H]34)N(C(=O)OC(C)(C)C)C2)C(CO)C1CO (some centres undefined) | -2.25
CC(=O)NCCCC[C@@H]1NC(=O)[C@@H]2C[C@H](C(=O)NCc3ccc(F)cc3)[C@H](c3cccc(OCCO)c3)N2C1=O | 0.374
CO[C@H]1COC(=O)CC=C[C@@H](C)COC(=O)[C@@H](C)NC(=O)CC=C[C@@H]1C | -0.872

Consider the record given below.
input: # input compound: CCOC(=O)C1=C[C@@H](c2ccccc2)N(S(=O)(=O)c2ccc(C)cc2)[C@H]1c1ccc(F)cc1 ; wanted: its z-score
output: 1

Origin of measurements: PubChem BioAssay
